- Assayed target: Tissue-type plasminogen activator (Homo sapiens)
- Sequence (P00750 whole entry): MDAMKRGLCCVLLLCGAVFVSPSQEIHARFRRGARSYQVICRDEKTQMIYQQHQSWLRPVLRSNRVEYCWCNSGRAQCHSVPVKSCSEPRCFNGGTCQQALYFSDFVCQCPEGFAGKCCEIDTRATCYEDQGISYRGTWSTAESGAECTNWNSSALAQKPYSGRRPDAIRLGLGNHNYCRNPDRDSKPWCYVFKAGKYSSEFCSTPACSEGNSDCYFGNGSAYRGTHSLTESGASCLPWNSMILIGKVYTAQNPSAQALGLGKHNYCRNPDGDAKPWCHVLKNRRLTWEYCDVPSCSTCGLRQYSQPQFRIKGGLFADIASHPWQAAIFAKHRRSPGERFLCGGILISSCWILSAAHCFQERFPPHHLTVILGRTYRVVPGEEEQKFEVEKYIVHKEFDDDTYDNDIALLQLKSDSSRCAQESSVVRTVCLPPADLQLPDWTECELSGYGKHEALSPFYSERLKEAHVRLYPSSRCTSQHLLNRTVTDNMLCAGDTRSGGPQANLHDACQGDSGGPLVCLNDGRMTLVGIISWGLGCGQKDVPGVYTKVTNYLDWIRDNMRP
Assay metric: pKi
By convention, pKi is the negative base-10 log of a molar concentration.

Some compounds with known pKi results, for comparison:
Form: item `N=C(N)c1ccc(O)c(CN2CC[C@H](NS(=O)(=O)c3cc4ccnc(Cl)c4s3)C2=O)c1` ; test system Tissue-type plasminogen activator (Homo sapiens); pKi: 5.12

The compound `N=C(N)c1ccc(O)c(CN2CC[C@H](NS(=O)(=O)c3cc4c(Cl)nccc4s3)C2=O)c1` , when measured on Tissue-type plasminogen activator (Homo sapiens), yielded pKi of 5.06

Please turn your attention to the following entry.
Entry `N=C(N)c1ccc(O)c(CN2CC[C@H](NS(=O)(=O)c3cc4ncccc4s3)C2=O)c1` : pKi on Tissue-type plasminogen activator (Homo sapiens) = 6.44
